- tested system: ABCG2 (BCRP) (Homo sapiens, UniProt Q9UNQ0)
- Sequence (Q9UNQ0 whole entry): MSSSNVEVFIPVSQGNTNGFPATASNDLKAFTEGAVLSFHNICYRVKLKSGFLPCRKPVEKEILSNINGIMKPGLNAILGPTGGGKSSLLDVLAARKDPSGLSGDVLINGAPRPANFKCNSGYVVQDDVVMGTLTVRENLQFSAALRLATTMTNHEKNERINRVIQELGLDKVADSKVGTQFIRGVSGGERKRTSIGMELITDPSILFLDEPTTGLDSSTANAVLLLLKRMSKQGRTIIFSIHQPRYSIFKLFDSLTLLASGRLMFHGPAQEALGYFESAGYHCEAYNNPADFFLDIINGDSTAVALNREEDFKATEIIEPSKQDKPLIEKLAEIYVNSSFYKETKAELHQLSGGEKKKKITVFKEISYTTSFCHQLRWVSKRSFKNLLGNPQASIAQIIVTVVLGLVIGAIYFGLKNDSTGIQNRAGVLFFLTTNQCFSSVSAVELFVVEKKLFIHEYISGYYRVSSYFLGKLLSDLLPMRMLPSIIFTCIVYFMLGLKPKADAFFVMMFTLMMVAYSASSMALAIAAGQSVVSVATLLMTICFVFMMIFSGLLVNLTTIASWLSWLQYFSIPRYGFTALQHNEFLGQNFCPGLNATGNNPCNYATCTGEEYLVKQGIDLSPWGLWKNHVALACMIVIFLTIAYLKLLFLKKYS
- procedure text: Inhibition of ABCG2 in human MCF7/Topo cells at 10 uM by Hoechst 33342 assay relative to fumitremorgin C
- Type: cell-based
- assay setup: probe Hoechst 33342, read-out: Imax
Known Emax at 10 µM of a selection of compounds
Only the number, expressed in %, is required.

Query (compound): `COc1cc(OC)c2c(=O)cc(N3CCN(CCc4ccc([N+](=O)[O-])cc4)CC3)oc2c1` ; field requested: Emax at 10 µM
31.9

What do you get for `COc1cc(OC)c2c(=O)cc(N3CCN(Cc4ccc(F)c(F)c4)CC3)oc2c1` ?
50.4

What do you get for `COc1cc(O)c2c(=O)cc(C(=O)N3CCN(Cc4ccccc4[N+](=O)[O-])CC3)oc2c1` ?
90.5

What do you get for `COc1cc(OC)c2c(=O)cc(N3CCN(Cc4ccccc4[N+](=O)[O-])CC3)oc2c1` ?
72.6

What do you get for `O=C(c1cc(=O)c2c(OCc3ccccc3)cccc2o1)N1CCN(Cc2ccccc2)CC1` ?
84.1

What do you get for `COc1cc(OC)c2c(=O)cc(N3CCN(Cc4ccc([N+](=O)[O-])cc4)CC3)oc2c1` ?
56.9

What do you get for `COc1cc(OC)c2c(=O)cc(N3CCN(Cc4cccc([N+](=O)[O-])c4)CC3)oc2c1` ?
44

What do you get for `COc1cc(O)c2c(=O)cc(C(=O)N3CCN(Cc4ccc([N+](=O)[O-])cc4)CC3)oc2c1` ?
23.1
